Cited source for all entries: ChEMBL document CHEMBL1132474

# SYSTEM NAME: Human immunodeficiency virus type 1 protease (Human immunodeficiency virus 1, UniProt Q72874)
READOUT: IC50 (µM)
Form entry: value (µM) — number only.

Past entries and their recorded results:
>  <SAMPLE SMILES>
OC[C@]12C3NC4[C@](CO)(C5NC1[C@]3(CO)[C@H](c1ccccc1)[C@@]45CO)[C@H]2c1ccccc1

>  <UNIT>
µM

>  <VAL>
227

$$$$
>  <SAMPLE SMILES>
OC[C@]12C3N(Cc4ccccc4)C4[C@](CO)(C5N(Cc6ccccc6)C1[C@]3(CO)[C@H](c1ccccc1)[C@@]45CO)[C@H]2c1ccccc1

>  <UNIT>
µM

>  <VAL>
16.1

$$$$

## Task Using the record for COc1ccc([C@H]2[C@@]3(CO)C4N(Cc5ccccc5)C5[C@]2(CO)C2N(Cc6ccccc6)C3[C@]4(CO)[C@H](c3ccc(OC)cc3)[C@@]52CO)cc1 , state its measured IC50.
## Result 33

## Task Using the record for CN1C2[C@]3(CO)C4N(C)C5[C@@](CO)(C1[C@@]5(CO)[C@@H](c1ccccc1)[C@]24CO)[C@H]3c1ccccc1 , state its measured IC50.
## Result 262

## Task Using the record for COc1ccc([C@H]2[C@]3(CO)C4N(C)C5[C@]2(CO)C2N(C)C3[C@]4(CO)[C@H](c3ccc(OC)cc3)[C@]52CO)cc1 , state its measured IC50.
## Result 195

## Task Using the record for COc1ccc([C@H]2[C@]3(CO)C4NC5[C@@]2(CO)C2NC3[C@@]4(CO)[C@H](c3ccc(OC)cc3)[C@]52CO)cc1 , state its measured IC50.
## Result 209

###

# SYSTEM NAME: Human immunodeficiency virus type 1 protease (Human immunodeficiency virus 1)
# ASSAY INFO: Compound was evaluated for its binding affinity against HIV-1 protease
READOUT: pKi
# pKi = -log10(concentration in molar units)

## Task Using the record for OC[C@]12C3N(Cc4ccccc4)C4[C@](CO)(C5N(Cc6ccccc6)C1[C@]3(CO)[C@H](c1ccccc1)[C@@]45CO)[C@H]2c1ccccc1 , state its measured pKi.
## Result 5.11
